# PROTOCOL DESCRIPTION: Ratio of Kcat to Km for AAC(6')-li (unknown origin)
READOUT TYPE: kcat/Km (×10⁴ /M/s)

Sample answers from the record:
NC[C@H]1O[C@H](O[C@H]2[C@H](OCC(=O)NCCCCCNC(=O)CO[C@@H]3[C@@H](O)[C@H](N)C[C@H](N)[C@H]3O[C@H]3O[C@H](CN)[C@@H](O)[C@H](O)[C@H]3N)[C@@H](O)[C@H](N)C[C@@H]2N)[C@H](N)[C@@H](O)[C@@H]1O: 2.26
NC[C@H]1O[C@H](O[C@H]2[C@H](O)[C@@H](O)[C@H](N)C[C@@H]2N)[C@H](N)[C@@H](O)[C@@H]1O: 7.2

A. CN(CCCCN(C)C[C@@H](O)CO[C@@H]1[C@@H](O)[C@H](N)C[C@H](N)[C@H]1O[C@H]1O[C@H](CN)[C@@H](O)[C@H](O)[C@H]1N)C[C@@H](O)CO[C@@H]1[C@@H](O)[C@H](N)C[C@H](N)[C@H]1O[C@H]1O[C@H](CN)[C@@H](O)[C@H](O)[C@H]1N
B. NC[C@H]1O[C@H](O[C@H]2[C@H](OCC(=O)NCCCNC(=O)CO[C@@H]3[C@@H](O)[C@H](N)C[C@H](N)[C@H]3O[C@H]3O[C@H](CN)[C@@H](O)[C@H](O)[C@H]3N)[C@@H](O)[C@H](N)C[C@@H]2N)[C@H](N)[C@@H](O)[C@@H]1O
Q) Would you let me know which has the greater kcat/Km value, A or B ? Identify your pick by its label.
A) B
(B: 1.6 ×10⁴ /M/s, A: 0.93 ×10⁴ /M/s)
